- measured on: T1, Human NKp46 antigen for immunization, screening, and testing (Kactus, NKP-HM146) (human, UniProt O76036 22-255)
- T1 construct: Bought protein; also called human NKp46 antigen protein; human NKp46 protein
- assay notes: SPR (Biacore 8K), antibody captured on anti-human Fc, NKp46 as analyte, 1:1 fit
parameter: kon (M⁻¹ s⁻¹)

[[record]]
binder = "H4-PA31 humanized antibody (antibody, human IgG1, V domains shown, not shown: constant region of human IgG1) VH: EVQLVESGGGLVQPGGSLRLSCAVSGRTFSRLPMGWFRQAPGKDREFVAAISWSSSTTYYADSVKGRFTISRDNSKNTAYLQMNSLRAEDTAVYYCAAVGGSLDYSATVVYTAARAYADWGQGTLVTVSS"
reported_value = 175000

[[record]]
binder = "H2-PA27 humanized antibody (antibody, human IgG1, V domains shown, not shown: constant region of human IgG1) VH: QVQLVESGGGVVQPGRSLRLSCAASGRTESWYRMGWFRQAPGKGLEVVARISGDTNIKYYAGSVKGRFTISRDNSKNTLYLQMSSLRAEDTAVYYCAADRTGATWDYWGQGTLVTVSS"
reported_value = 97700

[[record]]
binder = "H1-PC11 humanized antibody (antibody, human IgG1, V domains shown, not shown: constant region of human IgG1) VH: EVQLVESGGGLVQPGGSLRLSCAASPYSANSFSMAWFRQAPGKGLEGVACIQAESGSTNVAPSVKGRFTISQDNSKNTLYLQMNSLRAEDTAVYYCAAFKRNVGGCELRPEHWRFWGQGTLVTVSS"
reported_value = 50800

[[record]]
binder = "H3-PC11 humanized antibody (antibody, human IgG1, V domains shown, not shown: constant region of human IgG1) VH: EVQLVESGGGLVQPGGSLRLSCAASPYSANSFSMAWFRQAPGKGREGVACIQAESGSTNVAPSVKGRFTISQDNSKNTLYLQMNSLRAEDTAVYYCAAFKRNVGGCELRPEHWRFWGQGTLVTVSS"
reported_value = 67800

